- System Name: MASP-2 CCP2-SP (Homo sapiens (Human))
- Experiment Notes: MASP-2 co-crystallization, X-ray crystallography and structure analysis (H-bonds, van der Waals contacts)
- Design: unit not given beside the values
- Settings: Table A2-13; MASP-2 TRP 655 CE3; compound atom in line below
Counter-ions that a name gives are not always drawn.
Quantity Measured: van der Waals contact distance TRP 655 atom CE3

[
  {
    "Compound": "Cc1nc(N)ccc1CNC(=O)[C@H](C)NC(=O)[C@H]1C[C@H](Cc2cccc(Cl)c2)CN1",
    "Reported Measurement": 3.49
  },
  {
    "Compound": "C[C@H](NC(=O)[C@H]1C[C@@H](c2ccccc2)CCN1)C(=O)NCc1ccc(C(=N)N)cc1 (stereo in doubt)",
    "Reported Measurement": 3.6
  },
  {
    "Compound": "C[C@H](NC(=O)[C@@H](CCc1ccccc1)NCCCc1ccc(O)cc1)C(=O)NCc1ccc(C(=N)N)cc1",
    "Reported Measurement": 3.49
  },
  {
    "Compound": "CNC(=O)c1ccc2c(=O)n(Cc3ccccc3)c(=O)n(CC(=O)NCc3ccc(C(=N)N)cc3)c2c1",
    "Reported Measurement": 3.76
  },
  {
    "Compound": "C[C@H](NC(=O)[C@H](N)CCc1ccccc1)C(=O)NCc1ccc(N)nc1",
    "Reported Measurement": 3.69
  },
  {
    "Compound": "CC(=O)Nc1ccc(CCN[C@H](CCc2ccccc2)C(=O)N[C@@H](C)C(=O)NCc2ccc(N)nc2C)cc1 [compound 1368, Dihydrochloride]",
    "Reported Measurement": 3.52
  },
  {
    "Compound": "Cc1nc(N)ccc1CNC(=O)[C@H](C)NC(=O)[C@H]1C[C@@H](c2cccc3ccccc23)CCN1",
    "Reported Measurement": 3.54
  },
  {
    "Compound": "Cc1cccc([C@H]2CN[C@@H](C(=O)N[C@@H](C)C(=O)NCc3ccc(N)nc3C)C2)c1 [compound 1257, Dihydrochloride]",
    "Reported Measurement": 3.87
  },
  {
    "Compound": "N=C(N)c1ccc(CNC(=O)[C@@H]2CCN2C(=O)[C@H](NCC(=O)O)C2CCCCC2)cc1 [melagatran, reference compound]",
    "Reported Measurement": 3.75
  },
  {
    "Compound": "C[C@H](NC(=O)[C@H]1C[C@@H](c2ccccc2)CN1)C(=O)NCc1ccc2c(N)nccc2c1",
    "Reported Measurement": 3.59
  },
  {
    "Compound": "C[C@H](NC(=O)[C@H](N)CCc1ccccc1)C(=O)NCc1cc(Cl)ccc1O [compound 1031, Hydrochloride]",
    "Reported Measurement": 3.49
  },
  {
    "Compound": "Cc1nc(N)ccc1CNC(=O)[C@H](C)NC(=O)[C@H]1C[C@H](Cc2cccc(-c3ccccc3)c2)CN1",
    "Reported Measurement": 3.7
  },
  {
    "Compound": "Cc1nc(N)ccc1CNC(=O)[C@H](C)NC(=O)[C@H]1C[C@H](Cc2ccccc2Br)CN1 [compound 1372, Di-trifluoroacetate salt]",
    "Reported Measurement": 3.54
  },
  {
    "Compound": "Cc1nc(N)ccc1CNC(=O)[C@H](C)NC(=O)[C@H]1C[C@H](Cc2ccccc2)CN1",
    "Reported Measurement": 3.78
  },
  {
    "Compound": "C[C@H](NC(=O)[C@H]1C[C@H](Cc2ccccc2)CN1)C(=O)NCc1cnc2[nH]cc(Cl)c2c1",
    "Reported Measurement": 3.66
  },
  {
    "Compound": "Cc1nc(N)ccc1CNC(=O)[C@H](C)NC(=O)c1cc(Cc2ccccc2)n[nH]1",
    "Reported Measurement": 3.89
  },
  {
    "Compound": "Cc1nc(N)ccc1CNC(=O)[C@H](C)NC(=O)[C@H]1C[C@@H](c2ccccc2)CCN1CCC(=O)O [compound 1411, Trifluoroacetate salt]",
    "Reported Measurement": 3.6
  },
  {
    "Compound": "Cc1nc(N)ccc1CNC(=O)[C@H](C)NC(=O)[C@H]1C[C@H](Cc2ccc3ccccc3c2)CN1",
    "Reported Measurement": 3.83
  }
]

---

Ligand-pharmacophore element distance, pharmacophore element C5 reference
- System Name: MASP-2 CCP2-SP (Homo sapiens (Human))
- Experiment Notes: MASP-2 co-crystallization, X-ray crystallography and structure analysis (H-bonds, van der Waals contacts)
- Settings: Table A4-1; element C5
Counter-ions that a name gives are not always drawn.
Quantity Measured: Ligand-pharmacophore element distance, pharmacophore element C5

[
  {
    "Compound": "Cc1nc(N)ccc1CNC(=O)C(C)NC(=O)C1CC(c2cccc3ccccc23)CCN1.Cl.Cl (stereo not shown) [1297_1]",
    "Reported Measurement": 0
  },
  {
    "Compound": "C[C@H](NC(=O)[C@H](N)CCc1cccc(Cl)c1)C(=O)NCc1ccc(C(=N)N)cc1 [compound 1081]",
    "Reported Measurement": 0
  },
  {
    "Compound": "Cc1nc(N)ccc1CNC(=O)[C@H](C)NC(=O)[C@H]1C[C@H](Cc2cc(Cl)cc(Cl)c2)CN1 [compound 1435, Dihydrochloride]",
    "Reported Measurement": 0
  },
  {
    "Compound": "C[C@H](NC(=O)[C@H]1C[C@@H](c2ccccc2)CCN1)C(=O)NCc1cc(Cl)ccc1O.Cl [1078_6]",
    "Reported Measurement": 0.48
  },
  {
    "Compound": "C[C@H](NC(=O)[C@H]1C[C@@H](c2ccccc2)CCN1)C(=O)NCc1cc(Cl)ccc1O.Cl [1078_2]",
    "Reported Measurement": 0.46
  },
  {
    "Compound": "CC(NC(=O)C(CCc1ccccc1)NCCCc1ccc(O)cc1)C(=O)NCc1ccc(C(=N)N)cc1.Cl.Cl (stereo not shown) [1145_A]",
    "Reported Measurement": 0
  },
  {
    "Compound": "Cc1cc(Cl)cc(CNC(=O)[C@H](C)NC(=O)[C@H]2C[C@H](Cc3ccccc3)CN2)c1O [compound 1307]",
    "Reported Measurement": 0.37
  },
  {
    "Compound": "C[C@H](NC(=O)[C@H](N)CCc1ccccc1)C(=O)NCc1ccc(C(=N)N)cc1 [compound 1024]",
    "Reported Measurement": 0
  },
  {
    "Compound": "Cc1nc(N)ccc1CNC(=O)[C@H](C)NC(=O)[C@H]1C[C@H](Cc2ccc3ccccc3c2)CN1 [compound 1338]",
    "Reported Measurement": 0
  },
  {
    "Compound": "Cc1nc(N)ccc1CNC(=O)[C@H](C)NC(=O)[C@H]1C[C@H](Cc2cc(-c3ccccc3)cs2)CN1 [compound 1399, Dihydrochloride]",
    "Reported Measurement": 0
  }
]

---

Pharmacophore protein distance to PRO_608 for assorted compounds
- System Name: MASP-2 CCP2-SP (Homo sapiens (Human), UniProt O00187)
- Sequence (O00187 445-686): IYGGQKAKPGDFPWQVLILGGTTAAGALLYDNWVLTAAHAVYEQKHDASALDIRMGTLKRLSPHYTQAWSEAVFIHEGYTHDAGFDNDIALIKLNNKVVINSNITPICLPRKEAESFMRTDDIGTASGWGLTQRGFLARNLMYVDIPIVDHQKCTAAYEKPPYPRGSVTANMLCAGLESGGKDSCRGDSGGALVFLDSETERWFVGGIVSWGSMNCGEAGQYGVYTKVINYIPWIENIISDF
- Sequence (O00187 364-432 partner): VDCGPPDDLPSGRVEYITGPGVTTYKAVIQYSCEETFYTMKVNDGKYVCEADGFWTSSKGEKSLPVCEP
- Experiment Notes: MASP-2 co-crystallization, X-ray crystallography and structure analysis (H-bonds, van der Waals contacts)
- Settings: Table A8-6; nearest protein atom in cell to the left
Quantity Measured: Pharmacophore protein distance to PRO_608

[
  {
    "Smiles Str": "C[C@H](NC(=O)[C@H](N)CCc1ccccc1)C(=O)NCc1ccc(C(=N)N)cc1",
    "System Name": "MASP-2 CCP2-SP (Homo sapiens (Human), UniProt O00187)",
    "Reported Measurement": 3.95
  },
  {
    "Smiles Str": "N=C(N)c1ccc(CNC(=O)[C@@H]2CCN2C(=O)[C@H](NCC(=O)O)C2Cc3ccccc3C2)cc1",
    "System Name": "MASP-2 CCP2-SP (Homo sapiens (Human), UniProt O00187)",
    "Reported Measurement": 4.05
  },
  {
    "Smiles Str": "C[C@H](NC(=O)[C@H]1C[C@H](c2ccccc2)CN1)C(=O)NCc1ccc2c(N)nccc2c1",
    "System Name": "MASP-2 CCP2-SP (Homo sapiens (Human), UniProt O00187)",
    "Reported Measurement": 3.95
  }
]

---

H-bond distance to MASP-2 GLY 656 atom O values for the molecules below.
- System Name: UniProt O00187
- Experiment Notes: MASP-2 co-crystallization, X-ray crystallography and structure analysis (H-bonds, van der Waals contacts)
- Settings: Table A1 (H-Bonds); GLY 656 O
Structures can show the parent of a compound that is named as a salt.

[
  {
    "Molecule": "C[C@H](NC(=O)[C@@H](CCc1ccccc1)NCCCc1ccc(O)cc1)C(=O)NCc1ccc(C(=N)N)cc1",
    "System Name": "UniProt O00187",
    "H-bond distance to MASP-2 GLY 656 atom O": 2.58
  },
  {
    "Molecule": "Cc1nc(N)ccc1CNC(=O)[C@H](C)NC(=O)[C@H]1C[C@H](Cc2ccccc2-c2ccccc2)CN1 [compound 1373, Di-trifluoroacetate salt]",
    "System Name": "UniProt O00187",
    "H-bond distance to MASP-2 GLY 656 atom O": 2.76
  },
  {
    "Molecule": "Cc1nc(N)ccc1CNC(=O)[C@H](C)NC(=O)[C@H]1C[C@H](Cc2cc(-c3ccccc3)cs2)CN1 [compound 1399, Dihydrochloride]",
    "System Name": "UniProt O00187",
    "H-bond distance to MASP-2 GLY 656 atom O": 2.75
  },
  {
    "Molecule": "C[C@H](NC(=O)[C@H]1C[C@H](Cc2ccccc2)CN1)C(=O)NCc1ccc(C(=N)N)cc1",
    "System Name": "UniProt O00187",
    "H-bond distance to MASP-2 GLY 656 atom O": 2.69
  },
  {
    "Molecule": "C[C@H](NC(=O)[C@H](N)CCc1ccccc1)C(=O)NCc1cc(Cl)ccc1O [compound 1031, Hydrochloride]",
    "System Name": "UniProt O00187",
    "H-bond distance to MASP-2 GLY 656 atom O": 2.67
  },
  {
    "Molecule": "C[C@H](NC(=O)[C@H]1C[C@H](Cc2ccccc2)CN1)C(=O)NCc1cnc2[nH]cc(Cl)c2c1",
    "System Name": "UniProt O00187",
    "H-bond distance to MASP-2 GLY 656 atom O": 2.83
  },
  {
    "Molecule": "Cc1nc(N)ccc1CNC(=O)[C@H](C)NC(=O)[C@H]1C[C@H](Cc2cc(Cl)cc(Cl)c2)CN1 [compound 1435, Dihydrochloride]",
    "System Name": "UniProt O00187",
    "H-bond distance to MASP-2 GLY 656 atom O": 2.79
  },
  {
    "Molecule": "Cc1nc(N)ccc1CNC(=O)C(C)NC(=O)[C@H]1C[C@H](c2cccc(-c3ccccc3)c2)CN1 (stereo in doubt)",
    "System Name": "UniProt O00187",
    "H-bond distance to MASP-2 GLY 656 atom O": 2.9
  }
]
